System: SN12C renal
Test: NCI tumour cell line growth inhibition, 48 h; in the data active = GI50 below about 0.43 µM; inactive = the rest
The categories you may choose from are active, inactive

Before answering, review these 2 worked examples.
Cn1c(COC(=O)N2CCCCC2)nc2c(N3CCOCC3)nc(-c3ccccc3)nc21; inactive
CC(ONC(=O)c1cc(C(F)(F)F)cc(C(F)(F)F)c1)C(=O)Nc1ccc(Cl)cc1 (stereo not drawn); inactive

Write down the call the test reported for this compound. Item: `CCc1c2c(nc3cc4c(cc13)OCO4)-c1cc3c(c(=O)n1C2)COC(=O)[C@@]3(CC)OC(=O)CN`
active

Write down the call the test reported for this compound. Item: `CCOC(=O)CC1(O)C=CC(=O)C=C1`
inactive

Write down the call the test reported for this compound. Item: `CCC[CH2][Sn]([CH2]CCC)([O]C(=O)c1cccc(F)c1)[O]C(=O)c1cccc(F)c1`
inactive

Write down the call the test reported for this compound. Item: `O=C1OCC(C#Cc2ccccc2)=C1Cl`
inactive

Write down the call the test reported for this compound. Item: COC(CCP(=O)(c1ccccc1)c1ccccc1)(C(=O)c1ccccc1)c1ccccc1 (stereo not drawn)
inactive

Write down the call the test reported for this compound. Item: `CC(C)=CCc1c(O)cc(/C=C/c2cc(O)c3c(c2)C[C@@H]2C(C)(C)[C@H](O)[C@H](O)C[C@@]2(C)O3)cc1O`
inactive

---

Here, each record is paired with measured TGI data.
System: IGROV1 ovarian
Assay: NCI tumour cell line growth inhibition, 48 h

Nc1nc(Cl)cc(NCC2(CO)CCC(Cc3ccccc3)C2)n1 (stereo not given); > 100 µM
O=C1C=C(Nc2ccccc2C(=O)CC(=O)C(=O)Nc2cccc(C(F)(F)F)c2)c2ccccc2C1=O; > 100 µM
Cc1ccc2c(c1)NC(=O)CCSSCCC(=O)N2; > 100 µM
c1ccc(N=C2SC(=NNc3ccccc3)SC2=Nc2ccccc2)cc1; > 100 µM

Proceeding to the next compound to report its TGI.
Would you kindly share the measured TGI for CCN(CC)c1ccc2c(c1)Oc1nc(N)c(C#N)c(N)c1C2Sc1ccc(SC)cc1 (stereo not given) ?
3.37 µM

---

System: HOP-92 NSCLC
Assay: NCI tumour cell line growth inhibition, 48 h
So basically: TGI at 20 µM or higher? That is Condition met. Lower than 20 µM? That is Condition not met.

Decide: is the reported value of TGI for `COc1cc2c(c(OC)c1OC)-c1[nH]ncc1CC2` equal to or greater than 20 µM?
Condition met

Decide: is the reported value of TGI for COc1ccc(C(O)CNC(=O)c2ccccc2)cc1 (centres undefined) equal to or greater than 20 µM?
Condition met

---

Here, each record is paired with measured TGI data.
System: A549 NSCLC
Test: NCI tumour cell line growth inhibition, 48 h

CN1CCN(c2ccc3nc(-c4cc(C(C)(C)C)c(O)c(C(C)(C)C)c4)[nH]c3c2)CC1; 11.5 µM

Would you kindly share the measured TGI for COc1ccc(C2SCC(=O)N2c2ccc(-c3ccc(-n4c(-c5ccccc5)nc5ccccc5c4=O)cc3)cc2)cc1 (stereo not given) ?
> 100 µM

Would you kindly share the measured TGI for `COc1cnc2c(c1)C(=O)c1c-2n(CCCn2ccnc2)c(=O)c2cc(Cl)ccc12` ?
> 100 µM

Would you kindly share the measured TGI for CO[C@@H]1[C@@H](OC2OC(C)C(OC3CC(C)(O)C(OC(=O)CC(C)C)C(C)O3)C(N(C)C)C2O)[C@@H](CC=O)C[C@@H](C)C(=O)/C=C/C2O[C@H]2C[C@@H](C)OC(=O)C[C@H]1OC(C)=O (stereo not given in full) ?
> 100 µM

Would you kindly share the measured TGI for `CN1C(=O)CNC(=O)[C@H](NC(=O)c2nc3ccccc3cc2O)CSSC[C@H]1C(=O)NCCc1nc2ccccc2cc1O` ?
> 100 µM

Would you kindly share the measured TGI for `O=S1(=O)CCN(Cc2ccccn2)CC1` ?
> 100 µM

Would you kindly share the measured TGI for `COC(=O)CCC(=O)c1c(C)[nH]c(/C=C2\N=C(c3ccc[nH]3)C=C2OC)c1C` ?
10.8 µM

Would you kindly share the measured TGI for CC(NS(C)(=O)=O)c1ccccc1 (stereo not given) ?
> 100 µM

Would you kindly share the measured TGI for `CCOc1ccccc1/C=C1\NC(=O)N(/C=C2\C(=O)Oc3ccccc3C2=O)C1=O` ?
> 100 µM

Would you kindly share the measured TGI for CC(=O)N1CC2Nc3ccccc3C2CC1CO (stereo not given) ?
> 100 µM

Would you kindly share the measured TGI for `CN(C)CCn1c2ccccc2c2nc3cc4ccccc4cc3nc21` ?
16.9 µM

Would you kindly share the measured TGI for `O=C(CCC(=O)Nc1ccc(Cl)cc1)CC(=O)c1ccc(F)cc1` ?
> 100 µM

The measurements presented in this section are drawn from PubChem BioAssay (NCI).
